These measurements were taken from the supplement of paper PMC9112550.

Test system: Escherichia coli TOP10
Assay: shrunken log2 fold change of peptide-encoding DNA abundance (4.5 h post-induction vs induction); higher = less antimicrobial activity (less host growth inhibition)
Details: time post-induction: 4.5 h; library: site-saturation at positions 5, 18, 19, 20
Below, each entry is listed alongside its reported shrunken log2 fold change.

{"columns": ["item-sequence", "shrunken log2 fold change"],
 "data": [
  ["RRIRLRPPRLPRPRPRPCIGPRP", -0.147],
  ["RRIRHRPPRLPRPRPRPDFCPRP", -0.0801],
  ["RRIRVRPPRLPRPRPRPQWSPRP", -0.201],
  ["RRIRIRPPRLPRPRPRPFQYPRP", -0.0506],
  ["RRIRLRPPRLPRPRPRPDNKPRP", -0.357],
  ["RRIRFRPPRLPRPRPRPEIVPRP", -0.0888],
  ["RRIRERPPRLPRPRPRPFIKPRP", -0.16],
  ["RRIRYRPPRLPRPRPRPDKMPRP", -0.0477],
  ["RRIRERPPRLPRPRPRPHRPPRP", -0.123],
  ["RRIRARPPRLPRPRPRPNSEPRP", 0.0883],
  ["RRIRDRPPRLPRPRPRPNHLPRP", 0.000895],
  ["RRIRYRPPRLPRPRPRPQKMPRP", -0.295],
  ["RRIRFRPPRLPRPRPRPIEHPRP", -0.215],
  ["RRIRHRPPRLPRPRPRPPMNPRP", -0.543],
  ["RRIRHRPPRLPRPRPRPCQHPRP", -0.214],
  ["RRIRIRPPRLPRPRPRPTYLPRP", -0.463],
  ["RRIRMRPPRLPRPRPRPMFPPRP", 0.164],
  ["RRIRPRPPRLPRPRPRPEGFPRP", 0.86],
  ["RRIRDRPPRLPRPRPRPIADPRP", 0.163],
  ["RRIRSRPPRLPRPRPRPFWVPRP", 0.106],
  ["RRIRVRPPRLPRPRPRPNSVPRP", -0.00107],
  ["RRIRSRPPRLPRPRPRPYIKPRP", -0.234],
  ["RRIRFRPPRLPRPRPRPKWSPRP", 0.321],
  ["RRIRTRPPRLPRPRPRPETHPRP", 0.179],
  ["RRIRERPPRLPRPRPRPDIDPRP", -0.191],
  ["RRIRTRPPRLPRPRPRPIVAPRP", 2.95],
  ["RRIRHRPPRLPRPRPRPPRVPRP", 0.356],
  ["RRIRTRPPRLPRPRPRPMSNPRP", -0.535],
  ["RRIRYRPPRLPRPRPRPWICPRP", -0.593],
  ["RRIRYRPPRLPRPRPRPPYEPRP", -0.0831],
  ["RRIRRRPPRLPRPRPRPRKDPRP", 0.302],
  ["RRIRNRPPRLPRPRPRPREHPRP", 0.0287],
  ["RRIRSRPPRLPRPRPRPMCKPRP", 0.204],
  ["RRIRKRPPRLPRPRPRPWQHPRP", -0.0281],
  ["RRIRNRPPRLPRPRPRPSYQPRP", -0.75],
  ["RRIRERPPRLPRPRPRPMFWPRP", 0.0831],
  ["RRIRPRPPRLPRPRPRPKQDPRP", 0.0659],
  ["RRIRERPPRLPRPRPRPGKEPRP", 0.0125],
  ["RRIRGRPPRLPRPRPRPCVRPRP", 0.079],
  ["RRIRHRPPRLPRPRPRPCFTPRP", -0.838],
  ["RRIRCRPPRLPRPRPRPERWPRP", 0.877],
  ["RRIRRRPPRLPRPRPRPWIGPRP", 0.0943],
  ["RRIRWRPPRLPRPRPRPEYSPRP", 0.0675],
  ["RRIRSRPPRLPRPRPRPCAKPRP", 0.0351],
  ["RRIRWRPPRLPRPRPRPEHTPRP", 0.489],
  ["RRIRIRPPRLPRPRPRPKNRPRP", -0.26],
  ["RRIRNRPPRLPRPRPRPTFAPRP", 0.343],
  ["RRIRIRPPRLPRPRPRPAFPPRP", -0.0288],
  ["RRIRKRPPRLPRPRPRPQERPRP", -0.0146],
  ["RRIRFRPPRLPRPRPRPIECPRP", -0.00174],
  ["RRIRWRPPRLPRPRPRPLYVPRP", -0.836],
  ["RRIRCRPPRLPRPRPRPINEPRP", -0.116],
  ["RRIRLRPPRLPRPRPRPWYMPRP", -0.0481],
  ["RRIRHRPPRLPRPRPRPNLVPRP", -0.00912],
  ["RRIRPRPPRLPRPRPRPIYDPRP", -0.251],
  ["RRIRVRPPRLPRPRPRPNDPPRP", -0.0659],
  ["RRIRMRPPRLPRPRPRPNTMPRP", 0.0324],
  ["RRIRDRPPRLPRPRPRPTKIPRP", 0.0599],
  ["RRIRPRPPRLPRPRPRPDFVPRP", -0.107],
  ["RRIRTRPPRLPRPRPRPIVKPRP", -0.144],
  ["RRIRGRPPRLPRPRPRPKWTPRP", 0.392],
  ["RRIRIRPPRLPRPRPRPHDWPRP", -0.317],
  ["RRIRSRPPRLPRPRPRPVLYPRP", 1.03]
]}

###

Tested on: Escherichia coli TOP10;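 further: peptides expressed intracellularly from a pBAD plasmid library in pooled LB shake-flask culture, induced with 0.3% L-arabinose, DNA abundance read by NGS, three biological replicates, DESeq2 with apeglm shrinkage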
Test: shrunken log2 fold change of peptide-encoding DNA abundance (4.5 h post-induction vs induction); higher = less antimicrobial activity (less host growth inhibition)
Details: time post-induction: 4.5 h; library: site-saturation at positions 5, 18, 19, 20
Item-by-item account of shrunken log2 fold change
observation-type: shrunken log2 fold change

{"columns": ["item-sequence", "observation-type", "value-reported"],
 "data": [
  ["RRIRGRPPRLPRPRPRPGDPPRP", "shrunken log2 fold change", 0.779],
  ["RRIRQRPPRLPRPRPRPSCTPRP", "shrunken log2 fold change", -0.167],
  ["RRIRLRPPRLPRPRPRPLTFPRP", "shrunken log2 fold change", -0.633],
  ["RRIRCRPPRLPRPRPRPGNYPRP", "shrunken log2 fold change", -0.516],
  ["RRIRYRPPRLPRPRPRPEGIPRP", "shrunken log2 fold change", -0.0155],
  ["RRIRQRPPRLPRPRPRPFCLPRP", "shrunken log2 fold change", -0.336],
  ["RRIRERPPRLPRPRPRPLVIPRP", "shrunken log2 fold change", -0.169],
  ["RRIRTRPPRLPRPRPRPHACPRP", "shrunken log2 fold change", 0.158],
  ["RRIRPRPPRLPRPRPRPVTVPRP", "shrunken log2 fold change", -0.163],
  ["RRIRIRPPRLPRPRPRPDCYPRP", "shrunken log2 fold change", -0.226],
  ["RRIRRRPPRLPRPRPRPHIGPRP", "shrunken log2 fold change", -0.155],
  ["RRIRARPPRLPRPRPRPLPSPRP", "shrunken log2 fold change", 0.353],
  ["RRIRTRPPRLPRPRPRPSLNPRP", "shrunken log2 fold change", -0.555],
  ["RRIRMRPPRLPRPRPRPCDIPRP", "shrunken log2 fold change", -0.151],
  ["RRIRQRPPRLPRPRPRPLKVPRP", "shrunken log2 fold change", -0.102],
  ["RRIRKRPPRLPRPRPRPWPQPRP", "shrunken log2 fold change", 0.0865],
  ["RRIRYRPPRLPRPRPRPASMPRP", "shrunken log2 fold change", 0.0167],
  ["RRIRERPPRLPRPRPRPRQDPRP", "shrunken log2 fold change", -0.0529],
  ["RRIRMRPPRLPRPRPRPWPQPRP", "shrunken log2 fold change", 0.729],
  ["RRIRRRPPRLPRPRPRPRKRPRP", "shrunken log2 fold change", 0.859],
  ["RRIRKRPPRLPRPRPRPWNTPRP", "shrunken log2 fold change", -0.332],
  ["RRIRDRPPRLPRPRPRPTNPPRP", "shrunken log2 fold change", -0.417],
  ["RRIRARPPRLPRPRPRPTELPRP", "shrunken log2 fold change", 0.595],
  ["RRIRFRPPRLPRPRPRPRNSPRP", "shrunken log2 fold change", 0.168],
  ["RRIRTRPPRLPRPRPRPNSKPRP", "shrunken log2 fold change", -0.848],
  ["RRIRKRPPRLPRPRPRPYKLPRP", "shrunken log2 fold change", -0.281],
  ["RRIRERPPRLPRPRPRPFCMPRP", "shrunken log2 fold change", -0.126],
  ["RRIRKRPPRLPRPRPRPCFRPRP", "shrunken log2 fold change", -0.0108],
  ["RRIRARPPRLPRPRPRPSDYPRP", "shrunken log2 fold change", -0.108],
  ["RRIRFRPPRLPRPRPRPWWTPRP", "shrunken log2 fold change", 0.0245],
  ["RRIRHRPPRLPRPRPRPMPVPRP", "shrunken log2 fold change", -0.0266],
  ["RRIRGRPPRLPRPRPRPCYIPRP", "shrunken log2 fold change", 0.0972]
]}
